System: UACC-62 melanoma
Test Summary: NCI-60 one-dose screen, 48 h
Measurement Setup: 10 µM unless noted
Compounds without any hit were thinned out: in the full panel of roughly 83,000, 20% have a hit. The source made the active and inactive calls. How the source made its calls: active means growth percent below 10; inactive means the rest.
Outcome codes: active, inactive

>>> cat("O=C(CSc1nnc(-c2cccs2)n1-c1ccccc1)Nc1ccccc1")
"inactive"
>>> cat("O=C(/C=C/c1cccc(Br)c1)c1cccc(OCCCCOc2cccc(C(=O)/C=C/c3cccc(Br)c3)c2)c1")
"inactive"
>>> cat("CCOC(=O)c1c(NC(=O)c2ccc(C(F)(F)F)cc2)sc2c(CN3CCN(C)CC3)c(O)ccc12")
"inactive"
>>> cat("C#C[C@]1(O)CC[C@H]2[C@@H]3CC=C4c5sc(Nc6ncccc6C)nc5CC[C@]4(C)[C@H]3CC[C@@]21C")
"active"
>>> cat("CC(=O)Nc1nc(C)c(-c2csc(Nc3ccccc3)n2)s1")
"inactive"
>>> cat("CCN(CC)c1ccc(/C=N/NC(=O)c2ccc(S(N)(=O)=O)cc2)c(O)c1")
"active"
>>> cat("O=S(=O)(NCCCNc1nccc(-c2[nH]c(-c3ccccc3)nc2-c2ccc(F)c(O)c2)n1)c1cccc2ccccc12")
"inactive"
>>> cat("COc1ccc2[nH]cc(-c3nn4cc(-c5ccncc5)nc4s3)c2c1")
"inactive"
>>> cat("CCN(CC)c1ccc(/C=N/NC(=O)c2ccc(S(N)(=O)=O)cc2)cc1")
"inactive"

* * *

Test system: 786-0 renal
Test Summary: NCI-60 one-dose screen, 48 h (100 = growth as untreated, 0 = no growth, -100 = all killed)
Measurement Setup: 10 µM unless noted
The panel holds about 83,000 compounds, 20% with a hit somewhere; the sample as a whole holds those more often.
Recorded Metric: growth (%)

>>> measured("O=S(=O)(NCCCNc1nccc(-c2[nH]c(-c3ccccc3)nc2-c2ccc(F)c(O)c2)n1)c1cccc2ccccc12")
59.8
>>> measured("CSc1ccc(C(=NNS(=O)(=O)c2ccc(C)cc2)c2ccc(Cl)cc2)cc1")
104
>>> measured("CC(=O)Nc1ccccc1-c1nc2ccccc2s1")
104
>>> measured("CN(C)CC(=O)Nc1nc(-c2cccc(NS(=O)(=O)c3cccc4c(N(C)C)cccc34)c2)cs1")
90.5
>>> measured("CN1CCN(c2ccc(Nc3nc(NCCNS(=O)(=O)c4ccc5ccccc5c4)c4sccc4n3)cc2)CC1")
56.3
>>> measured("CN1CCN(Cc2ccc(NC(=O)c3cncc(C#Cc4cnc5ccc(NCCO)nn45)c3)cc2C(F)(F)F)CC1")
-17.9
>>> measured("CCn1c2ccc(/C=N/N(C)S(=O)(=O)CCN(C)C)cc2c2cc(/C=N/N(C)S(=O)(=O)CCN(C)C)ccc21")
50.3
>>> measured("c1ccc(-c2cn3c(-c4c[nH]c5ccccc45)csc3n2)cc1")
99.5
>>> measured("CCN(CC)CCOc1ccc(C(=C(C)c2ccc(OC)cc2)c2ccc(OCCN(CC)CC)cc2)cc1")
-51.1
>>> measured("Brc1ccc(-c2cc(-c3ccc4c(c3)OC=CO4)n[nH]2)s1")
104
>>> measured("COc1ccc(Cn2cc(C#N)c(N)c2C(C)=O)cc1")
111
>>> measured("NCCNC(=O)c1cccc(COc2ccccc2NC(=O)c2cc(Cl)c(Cl)[nH]2)c1")
90.3
>>> measured("CN(C)S(=O)(=O)c1ccc(-c2nc(C(Cl)Cl)nc3cc(-c4ccc(F)cc4)nn23)cc1")
72.6
>>> measured("O=C(Nc1ccc(N=Cc2c(O)[nH]c3ccccc23)cc1)Nc1ccc(S(=O)(=O)Nc2ncccn2)cc1")
100
>>> measured("CCOP(=O)(OCC)OC[C@]12CC[C@@H](C)[C@H](C)C1C1=CC[C@@H]3[C@@]4(C)CCCNC(C)(C)[C@@H]4CC[C@@]3(C)[C@]1(C)CC2 (some centres undefined)")
14.9
>>> measured("COC(=O)c1ccc(NC2=C(Cl)C(=O)c3nc(C)ccc3C2=O)cc1")
85.7
>>> measured("Cc1c(C(=O)/C=C/c2ccc(Cl)cc2)nnn1-c1ccc2oc(=O)ccc2c1")
101
>>> measured("CCOC(=O)c1c(NCC(=O)Nc2cccc([N+](=O)[O-])c2)sc(C(C)=O)c1C")
-15
>>> measured("CC1=Cc2ccccc2OC12C=Cc1ccccc1O2 (centres undefined)")
105

* * *

Examples of compounds with documented growth follow.
Tested on: SF-539 CNS
Test Summary: NCI-60 one-dose screen, 48 h (100 = growth as untreated, 0 = no growth, -100 = all killed)
Measurement Setup: 10 µM unless noted
Compounds without any hit were thinned out: in the full panel of roughly 83,000, 20% have a hit.
Recorded Metric: growth (%)

>>> measured("CC/C(=C(/c1ccc(Cl)cc1)c1ccc(OCCN)cc1)c1ccccc1")
98.6
>>> measured("COc1cccc2c1[C@H](OC)[C@]13O[C@@]1(C2=O)[C@H](O)[C@H](C)[C@@](O)(C(=O)[C@@H]1O[C@H]1C)[C@@H]3O")
-29
>>> measured("CN1CCN(c2ccc(Nc3nc(NCCCNS(=O)(=O)c4ccc(C(F)(F)F)cc4)c4sccc4n3)cc2)CC1")
-92.6
>>> measured("Cn1cc(-c2nnc(N)nc2-c2c[nH]c3ccc(F)cc23)c2cc(Br)ccc21")
7.43
>>> measured("O=C(CSc1nnc(-c2ccc(Cl)cc2)n1-c1ccccc1)Nc1ccc(Cl)cc1")
-15
>>> measured("CN1CCN(c2ccc(Nc3nc(NCCNS(=O)(=O)c4ccccc4)c4sccc4n3)cc2)CC1")
95.4
>>> measured("O=[N+]([O-])c1ccc(NC(=S)NNC(=S)Nc2ccc(F)cc2)cc1")
94.9
>>> measured("COc1cc2c3c(cc4c5c(ccc4c3c1OC)OCO5)N(CCN(C)C)C2=O")
-58.4
>>> measured("COc1cccc(N2CCN(C3=C(Cl)C(=O)c4ncccc4C3=O)CC2)c1")
93.8
>>> measured("Cc1csc(/N=C(N)/N=C(\\N)c2cccnc2)n1")
79.5
>>> measured("NCCNC(=O)c1cccc(COc2ccccc2NC(=O)c2cc(Cl)c(Cl)[nH]2)c1")
97.6
>>> measured("Cn1cc(-c2nnc(N)nc2-c2c[nH]c3ccc(Br)cc23)c2cc(Br)ccc21")
102
>>> measured("CCS(=O)(=O)Nc1ccc(C(=O)CC2(O)C(=O)Nc3ccccc32)cc1 (configuration not stated)")
96.1
>>> measured("COc1ccc(-c2cc(-c3ccc(N(C)C)cc3)n3c(n2)nc2ccccc23)cc1")
82.6
>>> measured("COc1cccc2c1C=CC1(O2)Oc2cccc(OC)c2C=C1C (configuration not stated)")
-9.43
>>> measured("C=C(C)[C@@H]1CC[C@]2(C(=O)N3CCN(C)CC3)CC[C@]3(C)[C@H](CC[C@@H]4[C@@]5(C)CC[C@H](OP(=O)(OCC)OCC)C(C)(C)[C@@H]5CC[C@]43C)[C@@H]12")
84.8
>>> measured("Fc1ccc(-c2cn3c(-c4c[nH]c5ccc(Br)cc45)csc3n2)cc1")
34.3
>>> measured("CN1CCN(c2ccc(Nc3nc(NCCCNS(=O)(=O)c4cccc5ccccc45)c4sccc4n3)cc2)CC1")
-92.1
>>> measured("CCCCCc1ccc(S(=O)(=O)Nc2cc(-c3csc(N)n3)ccc2OC)cc1")
89.7
>>> measured("Oc1[nH]c2ccc(Cl)cc2c1N=Nc1nc(N=Nc2c(O)[nH]c3ccc(Cl)cc23)nc(N2CCCCC2)n1")
79.5
>>> measured("O=C1[C@@H]2Cc3c([nH]c4ccccc34)[C@H](c3ccc(Cl)cc3)N2C(=O)CN1C1CCN(Cc2ccccc2)CC1")
77.6
>>> measured("CCNC(=O)Oc1ccc(/C(=C(/C)c2ccc(Cl)cc2)c2ccc(OCCN3CCCCCC3)cc2)cc1")
-44
>>> measured("COC(=O)c1cccc(NC2=C(Cl)C(=O)C(C)=C(C)C2=O)c1")
99.3
>>> measured("Cc1nc(N)sc1-c1csc(Nc2ccc(C(F)(F)F)cc2)n1")
27.1
>>> measured("O=C(/C=C/c1cccc(F)c1)c1cccc(OCCCOc2cccc(C(=O)/C=C/c3cccc(F)c3)c2)c1")
92.3
>>> measured("Cc1nc(/N=C(N)/N=C(\\N)c2cccc(Br)c2)sc1C")
37.8
>>> measured("O=C(/C=C/c1ccccc1Cl)Nc1ncc(Cc2cc(Cl)ccc2Cl)s1")
1.2
>>> measured("COc1ccc(N2CCN(C3=C(Cl)C(=O)c4ncccc4C3=O)CC2)cc1")
89.6
>>> measured("COc1ccc(C2CC(c3cccc(OCCCCOc4cccc(C5=NN(C(C)=O)C(c6ccc(OC)cc6)C5)c4)c3)=NN2C(C)=O)cc1 (configuration not stated)")
81.5
>>> measured("C#CCOc1ccccc1/C=N/Nc1nc(-c2ccc(Cl)cc2)cs1")
89.5
>>> measured("O=C(Nc1ccc(N=Cc2c(O)[nH]c3ccccc23)cc1)Nc1ccc(S(=O)(=O)Nc2ncccn2)cc1")
105
>>> measured("CCN(CC)c1ccc(/C=N/NC(=O)c2ccc(NS(C)(=O)=O)cc2)cc1")
18.6
>>> measured("O=C(CSc1nnc(-c2ccc(Cl)cc2)n1-c1ccccc1)Nc1ccccc1Cl")
52.1
>>> measured("O=C(/C=C/c1ccccc1)c1cccc(O)c1")
103
>>> measured("CC1=C(C)C(=O)C(Nc2cccc(C)c2)=C(Br)C1=O")
98.2
>>> measured("CCCCCCN1C=C/C(=C\\C(=O)n2ccc3ccccc32)c2ccccc21")
87
>>> measured("Cc1[nH]c(C(=O)Nc2ccc(S(=O)(=O)N3CCCCC3)cc2OCCOCCOCCOCCOCCOCCOCCOCCOCCOc2cc(S(=O)(=O)N3CCCCC3)ccc2NC(=O)c2[nH]c(C)c3c2CCCCC3=O)c2c1C(=O)CCCC2")
14.1
